Test system: Providencia spp.
Assay: In vitro MIC, agar dilution
Format: cell-based
Settings: Providencia
Where a name gives a salt, the structure may show the parent alone.
For each record, write down the corresponding MIC90.
Report as a plain number; the unit µg/mL is understood.

For the record CN[C@@H]1CN(c2c(F)cn3c(=O)c(C(=O)O)cc(C4CC4)c3c2C)CC12CC2 [Example 1, hydrochloride] , what value of MIC90 is listed for Providencia spp.?
0.25

Same for Cc1c(N2C[C@@H]3CCCN[C@@H]3C2)c(F)cn2c(=O)c(C(=O)O)cc(C3CC3)c12 [Example 4, hydrochloride]
0.12

Same for Cc1c(N2C[C@@H](N)C3(CC3)C2)c(F)cn2c(=O)c(C(=O)O)cc(C3CC3)c12 [Example 5, hydrochloride]
0.06

Same for NC1CCN(c2c(F)cc3c(=O)c(C(=O)O)cn(C4CC4)c3c2Cl)C1 (centres unmarked)
0.03

Same for "O=C(O)c1cn(C2CC2)c2cc(N3CCNCC3)c(F)cc2c1=O"
0.25

----------
For each record, write down the corresponding MIC.
System: Providencia spp.
Assay: In vitro MIC, agar dilution
Format: cell-based
Settings: Providencia spp., 28 isolates; read-out: MIC Range
Structures can show the parent of a compound that is named as a salt.

# lookup: MIC of "N[C@@H]1[C@H]2CN(c3nc4c(cc3F)c(=O)c(C(=O)O)cn4-c3ccc(F)cc3F)C[C@@H]12"
0.03 to 2 µg/mL

Same for "C[C@@H]1CN(c2c(F)c(N)c3c(=O)c(C(=O)O)cn(C4CC4)c3c2F)C[C@H](C)N1"
0.015 to 2 µg/mL

Same for NC1CCN(c2c(F)cc3c(=O)c(C(=O)O)cn(C4CC4)c3c2Cl)C1 (stereo not drawn)
0.008 to 0.12 µg/mL

Same for Cc1c(N2C[C@@H](N)C3(CC3)C2)c(F)cn2c(=O)c(C(=O)O)cc(C3CC3)c12 [Example 5, hydrochloride]
0.008 to 0.25 µg/mL

Same for CN[C@@H]1CN(c2c(F)cn3c(=O)c(C(=O)O)cc(C4CC4)c3c2C)CC12CC2 [Example 1, hydrochloride]
0.015 to 1 µg/mL

Same for "O=C(O)c1cn(C2CC2)c2cc(N3CCNCC3)c(F)cc2c1=O"
0.015 to 0.25 µg/mL

----------
For each record, write down the corresponding MIC90.
Test system: S. pyogenes
Experiment: In vitro MIC, agar dilution
Type: cell-based
Details: Streptococcus pyogenes
Report as a plain number; the unit µg/mL is understood.

# lookup: MIC90 of NC1CCN(c2c(F)cc3c(=O)c(C(=O)O)cn(C4CC4)c3c2Cl)C1 (stereo not drawn) [Clinafloxacin, clinafloxacin]
0.06

Same for N[C@@H]1[C@H]2CN(c3nc4c(cc3F)c(=O)c(C(=O)O)cn4-c3ccc(F)cc3F)C[C@@H]12 [Trovafloxacin, trovafloxacin]
0.25

Same for O=C(O)c1cn(C2CC2)c2cc(N3CCNCC3)c(F)cc2c1=O [Ciprofloxacin, ciprofloxacin]
1

----------
Test system: E. coli
Test: In vitro MIC, agar dilution
Assay type: cell-based
Conditions: Escherichia coli, 25 isolates
Structures can show the parent of a compound that is named as a salt.
For each record, write down the corresponding MIC.

# lookup: MIC of "N[C@@H]1[C@H]2CN(c3nc4c(cc3F)c(=O)c(C(=O)O)cn4-c3ccc(F)cc3F)C[C@@H]12"
0.015 to 0.03 µg/mL

Same for Cc1c(N2C[C@@H]3CCCN[C@@H]3C2)c(F)cn2c(=O)c(C(=O)O)cc(C3CC3)c12 [Example 4, hydrochloride]
≤ 0.008 µg/mL

Same for "O=C(O)c1cn(C2CC2)c2cc(N3CCNCC3)c(F)cc2c1=O"
0.008 to 0.03 µg/mL

Same for "C[C@@H]1CN(c2c(F)c(N)c3c(=O)c(C(=O)O)cn(C4CC4)c3c2F)C[C@H](C)N1"
0.004 to 0.03 µg/mL

----------
System: Streptococcus pneumoniae 6303
Assay: In vivo efficacy, mouse infection (ED50)
Conditions: Streptococcus pneumoniae, 6303, in Mus musculus, po, 168 h
Structures can show the parent of a compound that is named as a salt.
MEASUREMENT_LABEL: ED50 (mg/kg)
Report as a plain number; the unit mg/kg is understood.

For the record CN[C@@H]1CN(c2c(F)cn3c(=O)c(C(=O)O)cc(C4CC4)c3c2C)CC12CC2 [Example 1, hydrochloride] , what value of ED50 is listed for Streptococcus pneumoniae 6303?
20

Same for Cc1c(N2C[C@@H](N)C3(CC3)C2)c(F)cn2c(=O)c(C(=O)O)cc(C3CC3)c12 [Example 5, hydrochloride]
4.2

Same for Cc1c(N2CC[C@H](N)C2)c(F)cn2c(=O)c(C(=O)O)cc(C3CC3)c12 [Example 2, hydrochloride]
5.3

----------
Experiment: in vivo
Conditions: mouse, ip
Counter-ions that a name gives are not always drawn.
For each record, write down the corresponding LD50 at 504 h.
Report as a plain number; the unit mg/kg is understood.

# lookup: LD50 at 504 h of Cc1c(N2CC[C@H](N)C2)c(F)cn2c(=O)c(C(=O)O)cc(C3CC3)c12 [Example 2, hydrochloride]
38.8

Same for Cc1c(N2C[C@@H](N)C3(CC3)C2)c(F)cn2c(=O)c(C(=O)O)cc(C3CC3)c12 [Example 5, hydrochloride]
105

Same for CN[C@@H]1CN(c2c(F)cn3c(=O)c(C(=O)O)cc(C4CC4)c3c2C)CC12CC2 [Example 1, hydrochloride]
232

----------
Tested on: S. pneumoniae (CiproR)
Assay: In vitro MIC, agar dilution
Assay type: cell-based
Conditions: Streptococcus pneumoniae, read-out: MIC Range
Where a name gives a salt, the structure may show the parent alone.
MEASUREMENT_LABEL: MIC

# lookup: MIC of "O=C(O)c1cn(C2CC2)c2cc(N3CCNCC3)c(F)cc2c1=O"
4 to 8 µg/mL

Same for Cc1c(N2C[C@@H](N)C3(CC3)C2)c(F)cn2c(=O)c(C(=O)O)cc(C3CC3)c12 [Example 5, hydrochloride]
0.06 to 0.12 µg/mL

Same for Cc1c(N2C[C@@H]3CCCN[C@@H]3C2)c(F)cn2c(=O)c(C(=O)O)cc(C3CC3)c12 [Example 4, hydrochloride]
0.12 to 0.25 µg/mL

Same for "N[C@@H]1[C@H]2CN(c3nc4c(cc3F)c(=O)c(C(=O)O)cn4-c3ccc(F)cc3F)C[C@@H]12"
0.5 to 1 µg/mL

Same for "C[C@@H]1CN(c2c(F)c(N)c3c(=O)c(C(=O)O)cn(C4CC4)c3c2F)C[C@H](C)N1"
0.25 to 0.5 µg/mL

----------
System: Enterococcus spp. (VanR)
Test: In vitro MIC, agar dilution
Type: cell-based
Settings: Enterococcus spp. (VanR), 21 isolates; read-out: MIC50
Structures can show the parent of a compound that is named as a salt.
MEASUREMENT_LABEL: MIC50

# lookup: MIC50 of "C[C@@H]1CN(c2c(F)c(N)c3c(=O)c(C(=O)O)cn(C4CC4)c3c2F)C[C@H](C)N1"
0.5 µg/mL

Same for Cc1c(N2CC[C@H](N)C2)c(F)cn2c(=O)c(C(=O)O)cc(C3CC3)c12 [Example 2, hydrochloride]
0.25 µg/mL

Same for Cc1c(N2C[C@@H](N)C3(CC3)C2)c(F)cn2c(=O)c(C(=O)O)cc(C3CC3)c12 [Example 5, hydrochloride]
0.5 µg/mL

Same for CN[C@@H]1CN(c2c(F)cn3c(=O)c(C(=O)O)cc(C4CC4)c3c2C)CC12CC2 [Example 1, hydrochloride]
0.5 µg/mL

Same for "N[C@@H]1[C@H]2CN(c3nc4c(cc3F)c(=O)c(C(=O)O)cn4-c3ccc(F)cc3F)C[C@@H]12"
1 µg/mL

Same for NC1CCN(c2c(F)cc3c(=O)c(C(=O)O)cn(C4CC4)c3c2Cl)C1 (stereo not drawn)
1 µg/mL

----------
Test system: S. aureus (CiproR)
Test: In vitro MIC, agar dilution
Type: cell-based
Details: Staphylococcus aureus; S. aureus (CiproR), 25 isolates; read-out: MIC50
Counter-ions that a name gives are not always drawn.
MEASUREMENT_LABEL: log10 MIC50 (log10 of the value in µg/mL)
Please keep in mind that the values are log10 of MIC50 expressed in µg/mL.

# lookup: log10 MIC50 of Cc1c(N2CC[C@H](N)C2)c(F)cn2c(=O)c(C(=O)O)cc(C3CC3)c12 [Example 2, hydrochloride]
-0.60

Same for "C[C@@H]1CN(c2c(F)c(N)c3c(=O)c(C(=O)O)cn(C4CC4)c3c2F)C[C@H](C)N1"
0.60

Same for "N[C@@H]1[C@H]2CN(c3nc4c(cc3F)c(=O)c(C(=O)O)cn4-c3ccc(F)cc3F)C[C@@H]12"
0.30

Same for Cc1c(N2C[C@@H](N)C3(CC3)C2)c(F)cn2c(=O)c(C(=O)O)cc(C3CC3)c12 [Example 5, hydrochloride]
-0.92

Same for CN[C@@H]1CN(c2c(F)cn3c(=O)c(C(=O)O)cc(C4CC4)c3c2C)CC12CC2 [Example 1, hydrochloride]
-0.30

Same for NC1CCN(c2c(F)cc3c(=O)c(C(=O)O)cn(C4CC4)c3c2Cl)C1 (stereo not drawn)
-0.30
